- Test system: H1155 (non-small cell lung carcinoma)
- procedure_details: In vitro antiproliferation assay, H1155 cells
- Assay type: cell-based
- details: H1155
pIC50: −log10 of the molar value.
quantity_measured: pIC50

Name the reported pIC50 value associated with the compound Cc1cc(Nc2ncc(F)c(NC3C4C=CC(C4)C3C(N)=O)n2)ccc1N1CCN(C)CC1 (racemic) ≥ 8.00

---

- Test system: H1299 (non-small cell lung carcinoma)
- procedure_details: In vitro antiproliferation assay, H1299 cells (TABLE 1 6 point assay; TABLE 2)
- Format: cell-based
- details: Homo sapiens, NCI-H1299, 6 point assay; H1299 cells; read-out: IC50, H1299 cells
For each record, write down the corresponding IC50.

Name the reported IC50 value associated with the compound CN1CCN(C(=O)Cc2ccc(Nc3ncc(F)c(N[C@H]4CCC[C@H]4C(N)=O)n3)cc2)CC1 (racemic) 1000 to 10000 nM

Name the reported IC50 value associated with the compound CN1CCN(c2ccc(Nc3ncc(F)c(NC4C5C=CC(C5)C4C(N)=O)n3)cc2CO)CC1 (racemic) ≤ 100 nM

Name the reported IC50 value associated with the compound CN1CCN(c2ccc(Nc3ncc(F)c(NC4C5C=CC(C5)C4C(N)=O)n3)cc2)CC1 (racemic) ≤ 100 nM

Name the reported IC50 value associated with the compound Cc1cc(Nc2ncc(F)c(N[C@@H]3[C@H](C(=O)NC4CCC4)[C@H]4C=C[C@@H]3C4)n2)ccc1N1CCN(C)CC1 1000 to 10000 nM

Name the reported IC50 value associated with the compound Cc1cc(Nc2ncc(F)c(N[C@H]3CCC[C@H]3C(N)=O)n2)ccc1N1CCN(C)CC1 (stereo in doubt) [Compound 15a] 100 to 1000 nM

Name the reported IC50 value associated with the compound COCc1cc(Nc2ncc(F)c(N[C@H]3CCC[C@H]3C(N)=O)n2)ccc1N1CCN(C)CC1 (racemic) 100 to 1000 nM

Name the reported IC50 value associated with the compound Cc1cc(Nc2ncc(F)c(NC3C4C=CC(C4)C3C(N)=O)n2)ccc1N1CC2CC1CC2C (racemic) ≤ 100 nM

Name the reported IC50 value associated with the compound COC(=O)[C@H]1CC[C@@H](Nc2nc(Nc3ccc(N4CCN(C)CC4)c(C)c3)ncc2F)C1 1000 to 10000 nM

Name the reported IC50 value associated with the compound Cc1cc(Nc2ncc(F)c(N[C@H]3CCC[C@@H]3C(N)=O)n2)ccc1N1CCN(C)CC1 [15d] > 10000 nM

Name the reported IC50 value associated with the compound Cc1cc(Nc2ncc(F)c(N[C@@H]3C=C[C@H](C(N)=O)C3)n2)ccc1N1CCN(C)CC1 100 to 1000 nM

Name the reported IC50 value associated with the compound Cc1cc(Nc2ncc(F)c(N[C@H]3CCC[C@H]3C(N)=O)n2)ccc1N1CCCC1 (racemic) 1000 to 10000 nM

Name the reported IC50 value associated with the compound CN1CCC(c2cccc(Nc3ncc(F)c(NC4C5C=CC(C5)C4C(N)=O)n3)c2)CC1 (racemic) ≤ 100 nM

Name the reported IC50 value associated with the compound Cc1cc(Nc2ncc(F)c(N[C@H]3CCCC[C@H]3C(N)=O)n2)ccc1N1CCN(C)CC1 (racemic) 1000 to 10000 nM

Name the reported IC50 value associated with the compound CN1CCC(c2cccc(Nc3ncc(F)c(N[C@H]4[C@@H](C(N)=O)[C@@H]5C=C[C@H]4C5)n3)c2)CC1 ≤ 100 nM

Name the reported IC50 value associated with the compound Cc1cc(Nc2ncc(F)c(N[C@@H]3[C@H]4CC[C@H](C4)[C@@H]3C(N)=O)n2)ccc1N1CCN(C)CC1 (racemic) ≤ 100 nM

Name the reported IC50 value associated with the compound Cc1cc(Nc2ncc(F)c(NC3C4C=CC(C4)C3C(N)=O)n2)ccc1N1CCCC1 (racemic) 100 to 1000 nM

Name the reported IC50 value associated with the compound Cc1cc(Nc2ncc(F)c(NC3C(C(N)=O)[C@H]4C=C[C@@H]3C4)n2)ccc1N1CCN(C)CC1 (stereo in doubt) [Compound 60b] 1000 to 10000 nM

Name the reported IC50 value associated with the compound Cc1cc(Nc2ncc(F)c(NC3C4C=CC(C4)C3C(N)=O)n2)cc(C)c1N1CCN(C)CC1 (racemic) 1000 to 10000 nM

Name the reported IC50 value associated with the compound NC(=O)C1C2C=CC(C2)C1Nc1nc(Nc2ccc(C3CCNCC3)cc2)ncc1F (racemic) 100 to 1000 nM
